molecular target: Tyrosine-protein phosphatase non-receptor type 1 (Homo sapiens, UniProt P18031); assay: Inhibition of human recombinant PTP1B after 30 mins
Sequence (P18031 whole entry): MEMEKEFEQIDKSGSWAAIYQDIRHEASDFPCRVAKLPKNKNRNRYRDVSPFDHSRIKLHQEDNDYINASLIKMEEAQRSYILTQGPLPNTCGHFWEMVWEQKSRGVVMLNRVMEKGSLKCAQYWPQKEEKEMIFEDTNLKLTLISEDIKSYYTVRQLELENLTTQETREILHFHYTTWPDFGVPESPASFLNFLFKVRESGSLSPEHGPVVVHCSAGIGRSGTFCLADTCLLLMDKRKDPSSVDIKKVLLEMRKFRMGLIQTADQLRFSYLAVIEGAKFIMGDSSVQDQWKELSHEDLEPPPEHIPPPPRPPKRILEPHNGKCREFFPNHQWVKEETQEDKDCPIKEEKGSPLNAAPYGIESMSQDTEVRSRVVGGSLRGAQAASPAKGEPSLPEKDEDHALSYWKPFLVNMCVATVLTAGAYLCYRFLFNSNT
assay.endpoint: IC50 (µM)

item.smiles	assayed.target	IC50 (µM)
C[C@@H]1CC[C@]2(C(=O)O)CC[C@]3(C)C(=CC[C@@H]4[C@@]5(C)CCC(=O)[C@](C)(CO)[C@@H]5CC[C@]43C)[C@@H]2[C@]1(C)O	Tyrosine-protein phosphatase non-receptor type 1 (Homo sapiens, UniProt P18031)	8.1

1 = C[C@@H]1CC[C@]2(C(=O)O)CC[C@]3(C)C(=CC[C@@H]4[C@@]5(C)CC[C@H](O)[C@](C)(CO)[C@@H]5CC[C@]43C)[C@@H]2[C@]1(C)O
2 = CC1(C)CC[C@]2(C(=O)O)CC[C@]3(C)C(=CC[C@@H]4[C@@]5(C)CC[C@H](O)[C@](C)(CO)[C@@H]5CC[C@]43C)[C@@H]2[C@@H]1O
Q) Which is greater in IC50, the first item 1 or the second item 2 ? Provide the label of your selected option as the answer.
A) 2
(2: 18.8 µM, 1: 10.9 µM)
